Entries and their A/AI
# TARGET DESC: GluA2 (Homo sapiens)
# Construct: expressed in transfected cells; host or cells: HEK293T
# PROCEDURE DETAILS: Whole-cell patch-clamp recordings of homomeric GluA2 AMPAR in transfected HEK293T cells
# Type: cell-based
# CONDITION NOTES: ratio of current with glutamate alone (A) to inhibited current after TC compound (AI)
EXPERIMENTAL READOUT: A/AI

1. COc1ccc(-c2nc(C(=O)Nc3ccccc3)cs2)cc1 :: 3.17
2. COc1ccc(-c2nc(C(=O)Nc3cc(OC)c(OC)c(OC)c3)cs2)cc1 :: 5.49
3. COc1ccc(-c2nc(C(=O)Nc3ccc(C(C)(C)C)cc3)cs2)cc1 :: 2.91
4. COc1ccc(-c2nc(C(=O)Nc3ccc(OC)c(OC)c3)cs2)cc1 :: 5.03

* * *

# TARGET DESC: GluA2 (Homo sapiens, UniProt P42262)
# Construct: expressed in transfected cells; host or cells: HEK293T
# Sequence (P42262 25-883 isoform P42262-2 limits assumed, species assumed): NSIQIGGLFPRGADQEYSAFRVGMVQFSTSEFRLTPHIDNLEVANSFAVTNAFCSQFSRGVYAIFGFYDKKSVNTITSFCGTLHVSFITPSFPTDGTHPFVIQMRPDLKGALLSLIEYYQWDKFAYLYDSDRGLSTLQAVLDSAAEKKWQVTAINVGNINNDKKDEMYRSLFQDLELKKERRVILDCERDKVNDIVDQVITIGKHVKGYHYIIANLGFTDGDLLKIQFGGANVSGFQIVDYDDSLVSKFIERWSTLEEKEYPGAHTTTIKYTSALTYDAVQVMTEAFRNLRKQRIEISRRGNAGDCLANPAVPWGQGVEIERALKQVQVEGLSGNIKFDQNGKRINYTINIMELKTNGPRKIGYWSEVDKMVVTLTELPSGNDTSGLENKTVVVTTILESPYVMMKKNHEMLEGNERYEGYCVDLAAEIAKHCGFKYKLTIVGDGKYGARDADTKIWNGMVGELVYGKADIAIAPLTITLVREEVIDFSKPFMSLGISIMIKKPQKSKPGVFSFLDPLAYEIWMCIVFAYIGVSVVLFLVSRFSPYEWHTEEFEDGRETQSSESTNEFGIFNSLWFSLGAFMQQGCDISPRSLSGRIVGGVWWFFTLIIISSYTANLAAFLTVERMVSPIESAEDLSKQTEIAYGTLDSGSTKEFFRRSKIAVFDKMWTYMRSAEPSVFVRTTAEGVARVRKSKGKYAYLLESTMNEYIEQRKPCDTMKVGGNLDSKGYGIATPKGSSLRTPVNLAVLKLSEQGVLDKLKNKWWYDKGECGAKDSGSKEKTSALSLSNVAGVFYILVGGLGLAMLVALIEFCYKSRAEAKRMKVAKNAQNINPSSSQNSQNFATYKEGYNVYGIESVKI
# PROCEDURE DETAILS: Whole-cell patch-clamp recordings of homomeric GluA2 AMPAR in transfected HEK293T cells
# Assay type: cell-based
# CONDITION NOTES: 10 mM glutamate alone after 20 s wash following the TC compound, n = 10
EXPERIMENTAL READOUT: Amplitude, applying glutamate alone after TC compound (pA)

1) COc1ccc(-c2nc(C(=O)Nc3ccc(C(C)(C)C)cc3)cs2)cc1 :: 1110
2) COc1ccc(-c2nc(C(=O)Nc3cc(OC)c(OC)c(OC)c3)cs2)cc1 :: 1131
3) COc1ccc(-c2nc(C(=O)Nc3ccccc3)cs2)cc1 :: 1078
4) COc1ccc(-c2nc(C(=O)Nc3ccc(OC)c(OC)c3)cs2)cc1 :: 1137
5) COc1ccc(-c2nc(C(=O)Nc3cc(OC)ccc3OC)cs2)cc1 :: 1071

* * *

Measured t des by item
# TARGET DESC: GluA2 (Homo sapiens, UniProt P42262)
# Construct: expressed in transfected cells; host or cells: HEK293T
# PROCEDURE DETAILS: Whole-cell patch-clamp recordings of homomeric GluA2 AMPAR in transfected HEK293T cells
# Type: cell-based
# CONDITION NOTES: weighted tau of desensitization, 10 mM glutamate 500 ms, with TC compound, glutamate alone 2.6±0.1
EXPERIMENTAL READOUT: t des (ms)

1) COc1ccc(-c2nc(C(=O)Nc3ccc(OC)c(OC)c3)cs2)cc1 :: 1.1
2) COc1ccc(-c2nc(C(=O)Nc3ccccc3)cs2)cc1 :: 1.7
3) COc1ccc(-c2nc(C(=O)Nc3cc(OC)c(OC)c(OC)c3)cs2)cc1 :: 0.9
4) COc1ccc(-c2nc(C(=O)Nc3ccc(C(C)(C)C)cc3)cs2)cc1 :: 1.8
5) COc1ccc(-c2nc(C(=O)Nc3cc(OC)ccc3OC)cs2)cc1 :: 1.2

* * *

// reported A/AI for each item listed
# TARGET DESC: GluA1 (Homo sapiens)
# Construct: expressed in transfected cells; host or cells: HEK293T
# PROCEDURE DETAILS: Whole-cell patch-clamp recordings of homomeric GluA1 AMPAR in transfected HEK293T cells
# Type: cell-based
# CONDITION NOTES: GluA1; ratio of current with glutamate alone (A) to inhibited current after TC compound (AI)
EXPERIMENTAL READOUT: A/AI

1. COc1ccc(-c2nc(C(=O)Nc3ccc(C(C)(C)C)cc3)cs2)cc1 :: 2.53
2. COc1ccc(-c2nc(C(=O)Nc3cc(OC)ccc3OC)cs2)cc1 :: 4.67
3. COc1ccc(-c2nc(C(=O)Nc3ccccc3)cs2)cc1 :: 2.97
4. COc1ccc(-c2nc(C(=O)Nc3ccc(OC)c(OC)c3)cs2)cc1 :: 4.91

* * *

# TARGET DESC: GluA1 (Homo sapiens, UniProt P42261)
# Construct: expressed in transfected cells; host or cells: HEK293T
# Sequence (P42261 19-906 isoform P42261-2 limits assumed, species assumed): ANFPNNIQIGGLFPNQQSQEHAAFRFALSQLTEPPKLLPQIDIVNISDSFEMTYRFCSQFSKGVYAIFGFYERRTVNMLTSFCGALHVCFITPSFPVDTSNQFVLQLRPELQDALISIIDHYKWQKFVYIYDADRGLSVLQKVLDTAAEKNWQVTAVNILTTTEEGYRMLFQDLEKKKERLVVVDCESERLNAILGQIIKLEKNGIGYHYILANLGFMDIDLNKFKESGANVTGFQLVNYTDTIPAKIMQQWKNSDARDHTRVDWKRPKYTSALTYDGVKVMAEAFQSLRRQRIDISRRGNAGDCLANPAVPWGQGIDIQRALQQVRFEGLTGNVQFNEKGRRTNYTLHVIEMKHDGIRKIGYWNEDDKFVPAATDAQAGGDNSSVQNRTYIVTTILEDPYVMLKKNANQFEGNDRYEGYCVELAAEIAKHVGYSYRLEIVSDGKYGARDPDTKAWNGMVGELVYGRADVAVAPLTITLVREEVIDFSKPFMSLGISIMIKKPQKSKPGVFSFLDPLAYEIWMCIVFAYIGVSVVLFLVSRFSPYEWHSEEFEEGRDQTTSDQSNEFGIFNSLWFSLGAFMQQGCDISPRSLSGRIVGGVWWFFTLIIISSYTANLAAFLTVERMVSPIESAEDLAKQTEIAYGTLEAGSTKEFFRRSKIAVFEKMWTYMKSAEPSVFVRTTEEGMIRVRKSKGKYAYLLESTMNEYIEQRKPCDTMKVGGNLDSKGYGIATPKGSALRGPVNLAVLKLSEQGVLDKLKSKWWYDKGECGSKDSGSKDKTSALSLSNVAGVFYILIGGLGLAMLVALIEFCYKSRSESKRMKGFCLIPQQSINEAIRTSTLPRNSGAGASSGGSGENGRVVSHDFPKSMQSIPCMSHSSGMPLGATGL
# PROCEDURE DETAILS: Whole-cell patch-clamp recordings of homomeric GluA1 AMPAR in transfected HEK293T cells
# Type: cell-based
# CONDITION NOTES: GluA1; Table S6; read-out: Log IC50 (converted)
Each record here notes measured IC50.
EXPERIMENTAL READOUT: IC50 (µM)

1. COc1ccc(-c2nc(C(=O)Nc3ccc(C(C)(C)C)cc3)cs2)cc1 [TC-4] :: 5.89
2. COc1ccc(-c2nc(C(=O)Nc3ccc(OC)c(OC)c3)cs2)cc1 [TC-1] :: 3.39
3. COc1ccc(-c2nc(C(=O)Nc3cc(OC)ccc3OC)cs2)cc1 [TC-5] :: 3.55
4. COc1ccc(-c2nc(C(=O)Nc3ccccc3)cs2)cc1 [TC-3] :: 5.75
5. COc1ccc(-c2nc(C(=O)Nc3cc(OC)c(OC)c(OC)c3)cs2)cc1 [TC-2] :: 3.24

* * *

# TARGET DESC: GluA1/2 (Homo sapiens, UniProt P42261+P42262)
# Construct: expressed in transfected cells; host or cells: HEK293T
# PROCEDURE DETAILS: Whole-cell patch-clamp recordings of heteromeric GluA1/2 AMPAR in transfected HEK293T cells
# Type: cell-based
# CONDITION NOTES: weighted tau of deactivation, 10 mM glutamate for 1 ms, with TC compound, glutamate alone 2.5±0.3
EXPERIMENTAL READOUT: t deact (ms)

1. COc1ccc(-c2nc(C(=O)Nc3ccccc3)cs2)cc1 :: 3.3
2. COc1ccc(-c2nc(C(=O)Nc3ccc(C(C)(C)C)cc3)cs2)cc1 :: 3.2
3. COc1ccc(-c2nc(C(=O)Nc3cc(OC)ccc3OC)cs2)cc1 :: 5.6
4. COc1ccc(-c2nc(C(=O)Nc3cc(OC)c(OC)c(OC)c3)cs2)cc1 :: 6.0
5. COc1ccc(-c2nc(C(=O)Nc3ccc(OC)c(OC)c3)cs2)cc1 :: 5.8

* * *

# TARGET DESC: GluA2/3 (Homo sapiens, UniProt P42262+P42263)
# Construct: expressed in transfected cells; host or cells: HEK293T
# Sequence (P42263 29-894 isoform P42263-2 limits assumed, one chain of several): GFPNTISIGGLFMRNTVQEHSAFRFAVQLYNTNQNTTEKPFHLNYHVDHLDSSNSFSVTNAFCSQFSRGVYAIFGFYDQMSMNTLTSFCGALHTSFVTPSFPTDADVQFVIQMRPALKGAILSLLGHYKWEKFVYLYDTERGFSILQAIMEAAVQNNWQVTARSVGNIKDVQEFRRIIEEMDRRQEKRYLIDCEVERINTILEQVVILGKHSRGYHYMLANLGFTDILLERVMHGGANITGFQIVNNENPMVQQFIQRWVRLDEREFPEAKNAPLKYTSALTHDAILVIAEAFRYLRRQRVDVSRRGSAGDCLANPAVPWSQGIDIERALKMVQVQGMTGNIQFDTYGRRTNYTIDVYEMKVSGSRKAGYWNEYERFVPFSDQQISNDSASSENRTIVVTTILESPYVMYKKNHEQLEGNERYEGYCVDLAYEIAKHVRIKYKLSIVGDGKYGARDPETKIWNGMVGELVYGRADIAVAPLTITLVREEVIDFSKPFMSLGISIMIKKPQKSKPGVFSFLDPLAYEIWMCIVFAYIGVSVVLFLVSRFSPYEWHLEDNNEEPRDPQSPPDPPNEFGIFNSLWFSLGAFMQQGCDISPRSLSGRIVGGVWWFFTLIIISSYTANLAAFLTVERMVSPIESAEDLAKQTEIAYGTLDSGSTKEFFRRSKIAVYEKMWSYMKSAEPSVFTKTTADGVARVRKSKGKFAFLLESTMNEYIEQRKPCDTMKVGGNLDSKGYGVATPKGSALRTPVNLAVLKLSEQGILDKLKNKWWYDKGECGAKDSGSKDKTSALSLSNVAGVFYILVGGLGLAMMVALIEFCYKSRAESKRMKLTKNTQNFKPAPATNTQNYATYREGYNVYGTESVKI
# PROCEDURE DETAILS: Whole-cell patch-clamp recordings of heteromeric GluA2/3 AMPAR in transfected HEK293T cells
# Type: cell-based
# CONDITION NOTES: Table S6, peak current amplitudes, 8-10 cells, GraphPad Prism fit, read-out: IC50
EXPERIMENTAL READOUT: IC50 (µM)

1) COc1ccc(-c2nc(C(=O)Nc3ccccc3)cs2)cc1 [TC-3] :: 5.53
2) COc1ccc(-c2nc(C(=O)Nc3ccc(C(C)(C)C)cc3)cs2)cc1 [TC-4] :: 5.64
3) COc1ccc(-c2nc(C(=O)Nc3ccc(OC)c(OC)c3)cs2)cc1 [TC-1] :: 3.38
4) COc1ccc(-c2nc(C(=O)Nc3cc(OC)ccc3OC)cs2)cc1 [TC-5] :: 3.42

* * *

# TARGET DESC: GluA2/3 (Homo sapiens, UniProt P42262+P42263)
# Construct: expressed in transfected cells; host or cells: HEK293T
# PROCEDURE DETAILS: Whole-cell patch-clamp recordings of heteromeric GluA2/3 AMPAR in transfected HEK293T cells
# Format: cell-based
# CONDITION NOTES: ratio of current with glutamate alone (A) to inhibited current after TC compound (AI)
Parameter: A/AI. Scope: all listed entries.
EXPERIMENTAL READOUT: A/AI

1) COc1ccc(-c2nc(C(=O)Nc3ccc(OC)c(OC)c3)cs2)cc1 [TC-1] :: 4.95±0.19
2) COc1ccc(-c2nc(C(=O)Nc3ccc(C(C)(C)C)cc3)cs2)cc1 [TC-4] :: 2.59±0.05
3) COc1ccc(-c2nc(C(=O)Nc3ccccc3)cs2)cc1 [TC-3] :: 3.06±0.07
4) COc1ccc(-c2nc(C(=O)Nc3cc(OC)c(OC)c(OC)c3)cs2)cc1 [TC-2] :: 5.33±0.23
5) COc1ccc(-c2nc(C(=O)Nc3cc(OC)ccc3OC)cs2)cc1 [TC-5] :: 4.79±0.20

* * *

# TARGET DESC: GluA1/2 (Homo sapiens, UniProt P42261+P42262)
# Construct: expressed in transfected cells; host or cells: HEK293T
# PROCEDURE DETAILS: Whole-cell patch-clamp recordings of heteromeric GluA1/2 AMPAR in transfected HEK293T cells
# Assay type: cell-based
# CONDITION NOTES: Table S6, peak current amplitudes, 8-10 cells, GraphPad Prism fit, read-out: IC50
IC50 overview
EXPERIMENTAL READOUT: IC50 (µM)

1) COc1ccc(-c2nc(C(=O)Nc3ccc(C(C)(C)C)cc3)cs2)cc1 :: 5.78
2) COc1ccc(-c2nc(C(=O)Nc3ccc(OC)c(OC)c3)cs2)cc1 :: 3.36
3) COc1ccc(-c2nc(C(=O)Nc3ccccc3)cs2)cc1 :: 5.64
4) COc1ccc(-c2nc(C(=O)Nc3cc(OC)ccc3OC)cs2)cc1 :: 3.49
